Reported IC50 values for a set of molecules
System: MCF-7 cells
Assay: MCF7 Viability Assay (Breast Cancer Cell Viability Assay)
Type: cell-based
Details: Homo sapiens, MCF7, 120 h, 5 days' compound exposure, CellTiter-Glo

Below, each entry is followed by its recorded IC50 result.
O=C(O)/C=C/c1ccc(/C(=C(\c2ccccc2)C2CCC2)c2ccc(-c3ccncc3)cc2)cc1 ... ≤ 100 nM
O=C(O)/C=C/c1ccc(/C(=C(\c2ccccc2)C2CCC2)c2ccc(-c3cncs3)cc2)cc1 ... ≤ 100 nM
CC/C(=C(/c1ccc(/C=C/C(=O)O)cc1)c1ccc(-c2cnn(C)c2)cc1)c1ccccc1 ... ≤ 100 nM

# next molecule below
Which value of IC50 has been reported for O=C(O)/C=C/c1ccc(/C(=C(\c2ncccc2F)C2CCC2)c2ccc(-c3cn[nH]c3)cc2)cc1 in the records?
> 100 nM

---

We begin with a simple list: items and their reported IC50.
System: MCF-7 cells
Assay: MCF7 Viability Assay (Breast Cancer Cell Viability Assay)
Type: cell-based
Conditions: Homo sapiens, MCF7, 120 h, 5 days' compound exposure, CellTiter-Glo

CC/C(=C(/c1ccc(/C=C/C(=O)O)cc1)c1ccc(-c2nccs2)cc1)c1ccccc1 ... > 100 nM

IC50 for COc1ccc(/C(=C(\c2ccc(/C=C/C(=O)O)cc2)c2ccc(N3CCOCC3)cc2)C2CCC2)c(C)c1 ?
≤ 100 nM

Tell me the measured IC50 of O=C(O)/C=C/c1ccc(/C(=C(\c2ncc(C(F)(F)F)cc2Cl)C2CCC2)c2ccc(-c3cn[nH]c3)cc2)cc1 , please.
≤ 100 nM

If you can, please state the reported IC50 value of CC/C(=C(/c1ccc(/C=C/C(=O)O)cc1)c1cccc(-c2ccn[nH]2)c1)c1ccccc1 .
> 100 nM

Name the recorded IC50 for Fc1ccc(/C(=C(\c2ccc(/C=C/c3nn[nH]n3)cc2)c2ccc(-c3cn[nH]c3)cc2)C2CCC2)c(Cl)c1 .
≤ 100 nM

Can you share its IC50? I mean this compound: N#Cc1cc(Cl)ccc1/C(=C(\c1ccc(/C=C/C(=O)O)cc1)c1ccc(-c2cncs2)cc1)C1CCC1
≤ 100 nM

// IC50 lookup, key: O=C(O)/C=C/c1ccc(/C(=C(\c2ncccc2Cl)C2CCC2)c2ccc(N3CCOCC3)cc2)cc1
≤ 100 nM

---

System: MCF-7 cells
Assay: MCF7 Viability Assay (Breast Cancer Cell Viability Assay)
Type: cell-based
Details: Homo sapiens, MCF7, 120 h, 5 days' compound exposure, CellTiter-Glo
recorded.endpoint: IC50

COc1ccc(/C(=C(\c2ccc(/C=C/C(=O)O)cc2)c2ccc(-c3cncs3)cc2)C2CCC2)c(C)c1 ... ≤ 100 nM
O=C(O)/C=C/c1ccc(/C(=C(\c2ccc(F)cc2Cl)C2CCC2)c2ccc(-c3ccncc3)cc2)cc1 ... ≤ 100 nM
CC/C(=C(/c1ccc(/C=C/C(=O)O)cc1)c1ccc(-c2cnco2)cc1)c1ccccc1 ... ≤ 100 nM

Which IC50 is reported for this compound? CC/C(=C(/c1ccc(/C=C/C(=O)O)cc1)c1ccc(-c2cncs2)c(F)c1)c1ccccc1
≤ 100 nM

Reported IC50, compound COc1ccc(/C(=C(\c2ccc(/C=C/C(=O)O)cc2)c2ccc(-c3nn[nH]n3)cc2)C2CCC2)c(Cl)c1 : ____
> 100 nM

Fill in the blank: the reported IC50 of O=C(O)/C=C/c1ccc(/C(=C(\c2ccc(F)cc2Cl)C2CCC2)c2ccc(-c3nn[nH]n3)cc2)cc1 is ____.
> 100 nM

Item N#Cc1ccc(/C(=C(\c2ccc(/C=C/C(=O)O)cc2)c2ccc(-c3cncs3)cc2)C2CCC2)c(Cl)c1 has what recorded IC50?
≤ 100 nM

---

Target: ER-α (Homo sapiens, UniProt P03372)
Construct: endogenous in cells; host or cells: MCF-7
Sequence (P03372 1-595): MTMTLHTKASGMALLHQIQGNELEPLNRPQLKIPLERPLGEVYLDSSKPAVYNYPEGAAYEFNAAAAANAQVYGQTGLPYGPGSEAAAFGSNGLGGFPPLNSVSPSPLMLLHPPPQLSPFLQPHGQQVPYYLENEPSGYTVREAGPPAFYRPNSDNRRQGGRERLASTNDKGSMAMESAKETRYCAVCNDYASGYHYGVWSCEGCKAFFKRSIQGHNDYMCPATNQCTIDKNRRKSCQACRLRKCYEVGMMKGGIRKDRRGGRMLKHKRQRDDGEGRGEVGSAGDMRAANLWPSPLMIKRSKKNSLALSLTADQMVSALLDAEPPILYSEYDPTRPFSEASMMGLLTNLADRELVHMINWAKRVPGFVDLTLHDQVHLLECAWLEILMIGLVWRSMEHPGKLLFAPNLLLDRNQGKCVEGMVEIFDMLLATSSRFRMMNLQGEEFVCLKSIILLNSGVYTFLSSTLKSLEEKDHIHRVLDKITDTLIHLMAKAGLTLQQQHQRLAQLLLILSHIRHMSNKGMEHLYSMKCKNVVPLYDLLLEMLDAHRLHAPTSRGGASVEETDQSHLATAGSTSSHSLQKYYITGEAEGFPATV
Assay: Breast Cancer Cell ER-α In Cell Western Assay (SP1)
Format: cell-based
Conditions: MCF-7 cells, 4 or 24 hr post compound addition, SP1 antibody; read-out: ER-α In Cell Western Assay (SP1) IC50
Measured DC50 values are reported for all entries that follow.

CC/C(=C(/c1ccc(/C=C/C(=O)O)cc1)c1ccc(-c2cncs2)cc1)c1cscc1C [Example 32] ... ≤ 0.1 µM
O=C(O)/C=C/c1ccc(/C(=C(\c2ccc(OC(F)(F)F)cc2Cl)C2CCC2)c2ccc(-c3cn[nH]c3)cc2)cc1 [Example 52] ... ≤ 0.1 µM
CC1CCN(c2ccc(/C(=C(/c3ccccc3)C3CCC3)c3ccc(/C=C/C(=O)O)cc3)cc2)CC1 [Example 64] ... > 0.1 µM

Now look at this one.
Could you share which DC50 value was measured for O=C(O)/C=C/c1ccc(/C(=C(\c2ncccc2Cl)C2CCC2)c2ccc(-c3cn[nH]c3)cc2)cc1 [Example 42] ?
≤ 0.1 µM

---

The entries below are paired with their reported DC50.
Biological target: ER-α (Homo sapiens, UniProt P03372)
Construct: endogenous in cells; host or cells: MCF-7
Assay: Breast Cancer Cell ER-α In Cell Western Assay (SP1)
Format: cell-based
Conditions: MCF-7 cells, 4 or 24 hr post compound addition, SP1 antibody; read-out: ER-α In Cell Western Assay (SP1) IC50

COc1cc(C)c(/C(=C(\c2ccc(/C=C/C(=O)O)cc2)c2ccc(-c3cn[nH]c3)cc2)C2CCC2)cn1 [Example 61] ... ≤ 0.1 µM
O=C(O)/C=C/c1ccc(/C(=C(\c2ccc(C(F)(F)F)cc2Cl)C2CCC2)c2ccc(-c3cn[nH]c3)cc2)cc1 [Example 55] ... ≤ 0.1 µM
N#Cc1ccc(/C(=C(\c2ccc(/C=C/C(=O)O)cc2)c2ccc(N3CCOCC3)cc2)C2CCC2)c(Cl)c1 [Example 45] ... ≤ 0.1 µM
CC/C(=C(/c1ccc(/C=C/C(=O)O)cc1)c1ccc(-c2cncs2)cc1F)c1ccccc1 [Example 20] ... ≤ 0.1 µM
CC/C(=C(/c1ccc(/C=C/C(=O)O)cc1)c1ccc(N2CCCCC2)cc1)c1ccccc1 [Example 24] ... > 0.1 µM
CC/C(=C(/c1ccc(/C=C/C(=O)O)cc1)c1ccc(-c2cncs2)cc1)c1ccncc1Cl [Example 28] ... ≤ 0.1 µM

What measured DC50 goes with O=C(O)/C=C/c1ccc(/C(=C(\c2ccc(F)cc2Cl)C2CCC2)c2ccc(-c3cnn(CCO)c3)cc2)cc1 [Example 69] ?
≤ 0.1 µM

Would you mind telling me what DC50 value was observed for N#Cc1cc(Cl)ccc1/C(=C(\c1ccc(/C=C/C(=O)O)cc1)c1ccc(-c2cncs2)cc1)C1CCC1 [Example 62] ?
≤ 0.1 µM

---

Target: ER-α (Homo sapiens, UniProt P03372)
Construct: endogenous in cells; host or cells: MCF-7
Experiment: Breast Cancer Cell ER-α In Cell Western Assay (SP1)
Type: cell-based
Conditions: MCF-7 cells, 4 or 24 hr post compound addition, SP1 antibody; read-out: ER-α In Cell Western Assay (SP1) IC50
Reported DC50 values for a set of compounds

Here's what some known entries look like.
O=C(O)/C=C/c1ccc(/C(=C(\c2ccc(F)cc2Cl)C2CCC2)c2ccc(-c3nn[nH]n3)cc2)cc1 ... > 100 nM
Fc1ccc(/C(=C(\c2ccc(/C=C/c3nn[nH]n3)cc2)c2ccc(-c3cn[nH]c3)cc2)C2CCC2)c(Cl)c1 ... ≤ 100 nM
O=C(O)/C=C/c1ccc(/C(=C(\c2ncc(C(F)(F)F)cc2Cl)C2CCC2)c2ccc(-c3cn[nH]c3)cc2)cc1 ... ≤ 100 nM

If you can, please state the reported DC50 value of CC/C(=C(/c1ccc(/C=C/C(=O)O)cc1)c1ccc(-n2ccnc2)cc1)c1ccccc1 .
> 100 nM
